test: chemical genetic growth profiling, strain panel (AID 1159580);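 further: tested at 20 µM; growth read once vehicle control cultures reached saturation at 30 °C; 1 = growth at the plate median or of vehicle wells; lower values mean less growth of the strain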; details: S. cerevisiae deletion strains, growth OD, locus YDL017W, strain CDC7, active compounds read low
The whole screen tested about 5,500 compounds, of which about 2,000 (36%) were called active. Roughly 18% stayed inconclusive and do not appear here. The list shows a part of the results.
OBSERVED_PROPERTY: normalized growth
Answer as a number with no unit attached.

Fc1ccc(Nc2nc(-c3ccc(F)c(F)c3)cs2)c(F)c1: 0.128

Please look up its normalized growth: "O=C(Nc1ccc(OC(F)(F)F)cc1)Nc1cncc(C(F)(F)F)c1"
0.995

Fill blank: measured normalized growth of the compound "CCCCc1ccc(N=CNO)c(C)c1" is ____.
0.997

* * *

assay: chemical genetic growth profiling, strain panel (AID 1159580); settings: S. cerevisiae deletion strains, growth OD, locus YER155C, strain BEM2 (second series), active compounds read low
Out of some 5,500 compounds screened, about 2,000 (36%) were called active. Not shown: some 18% with an inconclusive outcome. The list shows a part of the results.
OBSERVED_PROPERTY: normalized growth
I only need the number, thanks.

Examples with their reported normalized growth follow.
CN1CCN(CCCN2c3ccccc3Sc3ccc(Cl)cc32)CC1: 0.861
CCS(=O)(=O)CCn1c([N+](=O)[O-])cnc1C: 0.99
OCCN1CCN(CCCN2c3ccccc3Sc3ccc(Cl)cc32)CC1: 0.971

Using the record for "O=C(O)CCCN1C(=O)c2cccc3cccc(c23)C1=O" , report its normalized growth.
1

Return reported normalized growth; argument: "CN(C)c1nc(N(C)C)nc(N(C)C)n1"
0.975

Query (compound): O=C1OC(=O)C2C3CCC(O3)C12 (configuration not stated) ; field requested: normalized growth
1.02

* * *

experiment: chemical genetic growth profiling, strain panel (AID 1159580); conditions: S. cerevisiae deletion strains, growth OD, locus YJL115W, strain asf1, active compounds read low
Among all 5,500 compounds or so, about 2,000 (36%) were called active. Inconclusive results (about 18%) are left out. The list shows a part of the results.
The following compounds are listed with their measured normalized growth values.
Note: the reply should be a number with no unit written.

Some compounds with known normalized growth results, for comparison:
Fc1ccc(C(c2ccc(F)cc2)N2CCN(C/C=C/c3ccccc3)CC2)cc1: 0.435
COc1c2occc2cc2ccc(=O)oc12: 0.943
O=C(/C=C/C(=O)Oc1ccccc1C(=O)O)Oc1ccccc1C(=O)O: 0.968
CN1Cc2c(N)cccc2C(c2ccccc2)C1 (stereo not drawn): 1.02
COc1ccc2c(c1)[nH]c1c(C)nccc12: 0.979

Look up normalized growth: "COc1cc(OC)c(C(C)=O)c(O)c1C"
0.944

Requested field: normalized growth. Item: "Cc1nccc2c1[nH]c1ccccc12"
0.975

* * *

assay: chemical genetic growth profiling, strain panel (AID 1159580); conditions: S. cerevisiae deletion strains, growth OD, locus YER123W, strain YCK3, active compounds read low
Out of some 5,500 compounds screened, about 2,000 (36%) were called active. Not shown: some 18% with an inconclusive outcome. Some of the results follow.
OBSERVED_PROPERTY: normalized growth
Lab note: record just the number, no unit beside it.

Worked cases, answers included:
N/C(=N/OC(=O)c1ccccc1Cl)c1ccc2nonc2c1: 0.977
O=S(=O)(Nc1ccc(-n2nc(C(F)(F)F)cc2-c2cccs2)cc1)c1ccc(F)cc1: 0.979
CCOC(=O)C(NC(C)=O)(Nc1ccc(F)c(Cl)c1)C(F)(F)F (stereo unspecified): 0.933

Fill blank: measured normalized growth of the compound CC(Oc1ccc(Cl)cc1Cl)C(=O)NNC(=S)Nc1ccccc1 (stereo unspecified) is ____.
0.983

If you can, please state the reported normalized growth value of "O=C(Nc1ccc(Cl)cc1)c1csc([N+](=O)[O-])c1" .
0.795

Given the compound "O=C(Oc1ccc(C2SCCS2)cc1)c1cccs1" , what is its reported normalized growth?
0.812

Need normalized growth, item "Oc1ccc(-n2nnnc2SCc2ccc(OC(F)(F)F)cc2)cc1"
0.651

Sample "Nc1ccccc1C(=O)N/N=C\c1cc(Cl)cc(Cl)c1O" — what was its normalized growth?
0.435

// returns reported normalized growth for input "O=C(Nc1ccc(OC(F)(F)F)cc1)Nc1cncc(C(F)(F)F)c1"
0.884

* * *

experiment: chemical genetic growth profiling, strain panel (AID 1159580); conditions: S. cerevisiae deletion strains, growth OD, locus YHR013C, strain ard1
About 2,000 (36%) of roughly 5,500 compounds were called active. Not shown: some 18% with an inconclusive outcome. Rule as the data show it: active = normalized growth mostly below about 0.91 (no sharp cut-off); inconclusive = no clear call, values can overlap the other calls; inactive = mostly above about 0.92. The list shows a part of the results.
Write down the outcome that applies. Available outcomes: class 1 = active, class 0 = inactive

Answered examples (6):
Nc1ncnc2c1ncn2[C@@H]1O[C@H](CO)[C@@H](O)[C@@H]1O: class 0
COc1cc2c(cc1-c1coc3c4c(c(OC)cc3c1=O)OC(C)(C)C=C4)OCO2: class 0
COc1cc(OC)c2c(=O)c(-c3ccc4c(c3)OCO4)coc2c1: class 0
CC(=O)Oc1ccc2c(c1)CCC1C2CC[C@@]2(C)C1CC[C@@H]2OC(C)=O (stereo not given in full): class 0
Cn1cnc([N+](=O)[O-])c1Sc1ncnc2nc[nH]c12: class 0
CC1(C)C[C@@H]2C(=O)CC[C@H]3O[C@]3(C)CC[C@H]21: class 0

Would you kindly look at the next entry?
How did this test come out for "CN(C)c1nc(N(C)C)nc(N(C)C)n1" ?
class 0

* * *

test: chemical genetic growth profiling, strain panel (AID 1159580);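 further: tested at 20 µM; growth read once vehicle control cultures reached saturation at 30 °C; 1 = growth at the plate median or of vehicle wells; lower values mean less growth of the strain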; settings: S. cerevisiae deletion strains, growth OD, locus YKL101W, strain HSL1, active compounds read low
Out of some 5,500 compounds screened, about 2,000 (36%) were called active. Not shown: some 18% with an inconclusive outcome. The list shows a part of the results.
OBSERVED_PROPERTY: normalized growth
# print the numeric value only

O=C(Nc1ccc(Cl)cc1)c1csc([N+](=O)[O-])c1: 0.894
N#C/C(=N/Nc1ccc(Cl)cc1)C(=O)C1CC1: 0.802
CC(C)(C)c1cc(C(=O)/C(C#N)=N\Nc2ccc(Cl)cc2)no1: 0.106
O=C(OCc1ccc(Oc2ccc(Cl)cc2Cl)c([N+](=O)[O-])c1)c1ccc([N+](=O)[O-])o1: 0.983
CSc1sc(-c2ccn[nH]2)c(-c2ccccc2)c1C#N: 0.976
O=C(Oc1ccc(C2SCCS2)cc1)c1cccs1: 0.852

Please give the measured normalized growth for this molecule: FC(F)(F)c1ccc(C2Sc3ccccc3N=C3c4ccccc4CC32)cc1 (stereo unspecified)
1.04

# input molecule: "Cc1oc(-c2ccc(Cl)cc2)cc1C(=O)N1CCN(c2ccc(C(F)(F)F)cn2)CC1" ; wanted: its normalized growth
0.94

Look up normalized growth: "N#C/C(=C\C=C\c1ccccc1)c1nc2ccccc2[nH]1"
0.882

Consider the molecule "Oc1ccc(-n2nnnc2SCc2ccc(OC(F)(F)F)cc2)cc1" and give its measured normalized growth.
0.716

Given the molecule "FC(F)(F)c1ccc(NC(=S)Nc2ccc(C(F)(F)F)cc2Cl)c(Cl)c1" , what is its reported normalized growth?
0.898

* * *

assay: chemical genetic growth profiling, strain panel (AID 1159580);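 further: tested at 20 µM; growth read once vehicle control cultures reached saturation at 30 °C; 1 = growth at the plate median or of vehicle wells; lower values mean less growth of the strain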; conditions: S. cerevisiae deletion strains, growth OD, locus YCL029C, strain bik1, active compounds read low
Screen size: about 5,500 compounds; about 2,000 (36%) were called active. Another 18% or so got no clear call; they are omitted. Some of the results follow.
OBSERVED_PROPERTY: normalized growth
When you answer, write just the number.

Below are worked cases with known answers.
CCCCC/C=C\C/C=C\C/C=C\C/C=C\CCCC(=O)O: 0.986
COc1cc(O)c(C)c(O)c1: 1.04
CN1Cc2c(N)cccc2C(c2ccccc2)C1 (stereo unspecified): 1
COc1c(O)cc(O)cc1O: 1.02
C[N+]1(C)C2CC[C@H]1CC(OC(=O)C(O)c1ccccc1)C2 (stereo partly specified): 0.995

Reported normalized growth, molecule "O=c1cc(-c2ccc(O)cc2)oc2cc(O[C@@H]3O[C@H](CO)[C@@H](O)[C@H](O)[C@H]3O[C@@H]3OC[C@](O)(CO)[C@H]3O)cc(O)c12" : ____
0.985

State the recorded normalized growth for this entry: "O=C1c2ccc(O)c(O)c2C(=O)c2c(O)ccc(O)c21"
1

// query normalized growth value for entry "COc1cc(O)c(C(C)=O)c(OC)c1"
1.01

* * *

assay: chemical genetic growth profiling, strain panel (AID 1159580);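 further: tested at 20 µM; growth read once vehicle control cultures reached saturation at 30 °C; 1 = growth at the plate median or of vehicle wells; lower values mean less growth of the strain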; settings: S. cerevisiae deletion strains, growth OD, locus YDL028C, strain MPS1
The whole screen tested about 5,500 compounds, of which about 2,000 (36%) were called active. About 18% were inconclusive and are not listed. No stated cut-off is given here; in the data, active means normalized growth mostly below about 0.91 (no sharp cut-off); inconclusive means no clear call, values can overlap the other calls; inactive means mostly above about 0.92. This is one part of the list.
Classes to choose from: active, inactive

Answer briefly: the call reported for "Cc1nc(C(F)(F)F)ccc1-c1nnc(SC(=O)c2ccc(Cl)cc2)o1" in this assay.
active

Kindly provide the recorded test outcome for the following compound: "Cc1oc(-c2ccc(Cl)cc2)cc1C(=O)N1CCN(c2ccc(C(F)(F)F)cn2)CC1"
inactive

For CC(Oc1ccc(Cl)cc1Cl)C(=O)NNC(=S)Nc1ccccc1 (centres undefined) , which call appears in the assay record?
inactive
